# Tested on: HePG2 hepatocarcinoma cells
# Assay type: cell-based
# RUN_CONDITIONS: human, 4 h, 10 μM
MEASUREMENT_NAME: Cell viability (%)
Number in %, nothing else.

// below: answered compounds
> print(dat)
                                   compound                  target.desc  readout.units  experimental.value
1  Nc1ncc(-c2ccc(N3CCNCC3)cc2)cc1-c1ccc2c(c1)OCCO2  HePG2 hepatocarcinoma cells              %                 102
2  CS(=O)(=O)CCNCc1ccc(-c2ccc3ncnc(Nc4ccc(OCc5cccc(F)c5)c(Cl)c4)c3c2)o1 [Lapatinib, reference compound]  HePG2 hepatocarcinoma cells              %                 104
3  COc1cc(-c2cc(-c3ccc(N4CCNCC4)cc3)cnc2Cl)cc(OC)c1OC  HePG2 hepatocarcinoma cells              %                 103
4  COc1cc(OC)cc(-c2cncc(-c3ccc(N4CCNCC4)cc3)c2)c1  HePG2 hepatocarcinoma cells              %                 100
5  COc1cc(OC)cc(-c2cc(-c3ccc(N4CCNCC4)cc3)cnc2N)c1  HePG2 hepatocarcinoma cells              %                  99

[Q] Test system HePG2 hepatocarcinoma cells; read-out Cell viability; what value for CCCS(=O)(=O)Nc1ccc(F)c(C(=O)c2c[nH]c3ncc(-c4ccc(Cl)cc4)cc23)c1F [Vemurafenib, reference compound] ?
[A] 100

[Q] Test system HePG2 hepatocarcinoma cells; read-out Cell viability; what value for COc1cc(-c2cc(-c3ccc(O)cc3)cnc2N)cc(OC)c1OC ?
[A] 98

[Q] Test system HePG2 hepatocarcinoma cells; read-out Cell viability; what value for COc1cc(-c2cc(-c3ccc(N4CCNCC4)cc3)cnc2N)ccc1Cl ?
[A] 104

====

# Test system: HePG2 hepatocarcinoma cells
# Type: cell-based
# RUN_CONDITIONS: human, 24 h, 1 μM
MEASUREMENT_NAME: Cell viability
Kindly format the answer as number then unit.

// below: answered compounds
> print(dat)
                                   compound  measurement.name  experimental.value
1  Nc1ncc(-c2ccc(N3CCNCC3)cc2)cc1-c1ccnc2ccccc12    Cell viability                108%
2  COc1cc(-c2cnc(N)c(-c3cc(OC)c(OC)c(OC)c3)c2)ccc1O    Cell viability                 97%
3  Nc1ncc(-c2ccc(N3CCNCC3)cc2)cc1-c1ccc2c(c1)OCCO2    Cell viability                103%
4  COc1cc2ncnc(Nc3ccc(F)c(Cl)c3)c2cc1OCCCN1CCOCC1 [Gefitinib, reference compound]    Cell viability                 98%
5  Cc1nc(Nc2ncc(C(=O)Nc3c(C)cccc3Cl)s2)cc(N2CCN(CCO)CC2)n1 [Dasatinib, reference compound]    Cell viability                 87%

[Q] // Cell viability lookup, key: COc1cc(OC)cc(-c2cc(-c3ccc(N4CCNCC4)cc3)cnc2N)c1
[A] 99%

[Q] // Cell viability lookup, key: CNc1ncc(-c2ccc(N3CCNCC3)cc2)cc1-c1cc(OC)c(OC)c(OC)c1
[A] 101%

[Q] // Cell viability lookup, key: COc1cc(-c2cc(-c3ccc(N4CCNCC4)cc3)cnc2OC)cc(OC)c1OC
[A] 99%

====

# TARGET_DESC: ALK2 (Homo sapiens, UniProt Q04771, Q207D)
# Construct: His tag (TEV-cleavable) (N, cleaved yes); made in house; host or cells: Sf9 insect cells (baculovirus)
# Sequence (Q04771 201-499 Q207D): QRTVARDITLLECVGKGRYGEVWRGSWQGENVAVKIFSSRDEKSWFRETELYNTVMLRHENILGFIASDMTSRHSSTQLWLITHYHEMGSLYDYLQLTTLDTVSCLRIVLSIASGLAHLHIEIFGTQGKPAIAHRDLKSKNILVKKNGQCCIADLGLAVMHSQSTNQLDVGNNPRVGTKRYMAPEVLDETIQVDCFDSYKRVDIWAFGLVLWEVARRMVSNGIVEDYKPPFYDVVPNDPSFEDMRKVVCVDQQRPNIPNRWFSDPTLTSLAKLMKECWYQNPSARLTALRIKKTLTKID
# ASSAY: Thermal shift kinase assay ALK2
# Format: binding
# RUN_CONDITIONS: ALK2 minus ALK5
# Lookup of reported ΔTmDiff. keyed by entry
// return just the number, without any unit appended

// below: answered compounds
> print(dat)
                                     smiles                               target.desc  measurement.name  experimental.value
1  COc1ccc(-c2cc(-c3ccc(N4CCNCC4)cc3)cnc2N)cc1OC  ALK2 (Homo sapiens, UniProt Q04771, Q207D)          ΔTmDiff.                 4.3
2  COc1cc(-c2cc(-c3ccc(N4CCNCC4)cc3)cnc2OC)cc(OC)c1OC  ALK2 (Homo sapiens, UniProt Q04771, Q207D)          ΔTmDiff.                 0.1
3  CNc1ncc(-c2ccc(N3CCNCC3)cc2)cc1-c1cc(OC)c(OC)c(OC)c1  ALK2 (Homo sapiens, UniProt Q04771, Q207D)          ΔTmDiff.                −0.5

Moving on to another compound below.
[Q] // ΔTmDiff. lookup, key: COc1cc(-c2cc(-c3cccc(N4CCNCC4)c3)cnc2N)cc(OC)c1OC
[A] 0.8

====

# Lookup of reported Cell viability keyed by entry
# Tested on: HePG2 hepatocarcinoma cells
# Format: cell-based
# RUN_CONDITIONS: human, 24 h, 10 μM
# Method: The cells were incubated for 2 h (37° C. and 5% CO2) and allowed to settle and attach. Compounds of interest or DMSO were diluted in DMEM and added at final compound concentrations of 1 μM, 10 μM, and 100 μM. […] Cell viability was determined by quantifying the ATP present in each well by adding 10 μL of CellTiter-Glo (Promega) per well and measuring the light output Spectramax L luminometer (Molecular Devices) with an integration time of one second per well. […]
Number in %, nothing else.

// below: answered compounds
> print(dat)
                                   compound  experimental.value
1  COc1cc2ncnc(Nc3ccc(F)c(Cl)c3)c2cc1OCCCN1CCOCC1 [Gefitinib, reference compound]                  82
2  CC(C)Oc1cccc(-c2cc(-c3ccc(N4CCNCC4)cc3)cnc2N)c1 [Compound 21]                  82
3  COc1cc(-c2cc(-c3ccc(N4CCNCC4)cc3)cnc2N)ccc1Cl [Compound 22]                  81

Moving on to another compound below.
[Q] // Cell viability lookup, key: COc1cc(-c2cc(-c3cccc(N4CCNCC4)c3)cnc2N)cc(OC)c1OC [Compound 14]
[A] 93

====

# Test system: HePG2 hepatocarcinoma cells
# Format: cell-based
# RUN_CONDITIONS: human, 24 h, 1 μM
MEASUREMENT_NAME: Cell viability (%)
Number in %, nothing else.

> print(dat)
                                     smiles  readout.units  experimental.value
1  COc1cccc(-c2cc(-c3ccc(N4CCNCC4)cc3)cnc2N)c1              %                 103
2  COc1cc(-c2cc(-c3ccc(N4CCNCC4)cc3)cnc2N)cc(OC)c1OC              %                  96

[Q] // Cell viability lookup, key: COc1cc(-c2cc(-c3ccc(O)cc3)cnc2N)cc(OC)c1OC
[A] 99

[Q] // Cell viability lookup, key: COc1cc(-c2cncc(-c3ccc(N4CCNCC4)cc3)c2)cc(OC)c1OC
[A] 103

====

# System: HePG2 hepatocarcinoma cells
# Assay type: cell-based
# RUN_CONDITIONS: human, 24 h, 10 μM
# Method: The cells were incubated for 2 h (37° C. and 5% CO2) and allowed to settle and attach. Compounds of interest or DMSO were diluted in DMEM and added at final compound concentrations of 1 μM, 10 μM, and 100 μM. […] Cell viability was determined by quantifying the ATP present in each well by adding 10 μL of CellTiter-Glo (Promega) per well and measuring the light output Spectramax L luminometer (Molecular Devices) with an integration time of one second per well. […]
The label is condition met for Cell viability below 90% and condition not met for Cell viability equal to or exceeding 90%.

> print(dat)
                                   molecule                  target.desc  class.assignment
1  CCCS(=O)(=O)Nc1ccc(F)c(C(=O)c2c[nH]c3ncc(-c4ccc(Cl)cc4)cc23)c1F [Vemurafenib, reference compound]  HePG2 hepatocarcinoma cells     condition met

[Q] Lab note: Cell viability threshold 90%. Does this molecule come in strictly under it? C#Cc1cccc(Nc2ncnc3cc(OCCOC)c(OCCOC)cc23)c1 [Erlotinib, reference compound]
[A] condition met

[Q] Lab note: Cell viability threshold 90%. Does this molecule come in strictly under it? Cc1cn(-c2cc(NC(=O)c3ccc(C)c(Nc4nccc(-c5cccnc5)n4)c3)cc(C(F)(F)F)c2)cn1 [Nilotinib, reference compound]
[A] condition not met

[Q] Lab note: Cell viability threshold 90%. Does this molecule come in strictly under it? COc1cc(-c2cncc(-c3ccc(N4CCNCC4)cc3)c2)cc(OC)c1OC
[A] condition met

[Q] Lab note: Cell viability threshold 90%. Does this molecule come in strictly under it? Nc1ncc(-c2ccc(N3CCNCC3)cc2)cc1-c1ccnc2ccccc12
[A] condition met

[Q] Lab note: Cell viability threshold 90%. Does this molecule come in strictly under it? COc1cc(-c2cc(-c3ccc(N4CCNCC4)cc3)cnc2OC)cc(OC)c1OC
[A] condition not met

These measurements were taken from patent US20170190705A1.
